// provenance: the RNAGym collection of RNA variant scans (doi:10.1073/pnas.2313332121)

B1: TPR t1 (parent)
chain: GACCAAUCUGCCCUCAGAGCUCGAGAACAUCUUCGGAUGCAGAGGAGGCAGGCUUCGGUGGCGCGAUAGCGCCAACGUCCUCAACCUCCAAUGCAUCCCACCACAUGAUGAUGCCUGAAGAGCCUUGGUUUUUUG

Variants of: B1
Experiment: polymerase ribozyme fitness, log enrichment relative to wild type (log ratio); higher = more active; in vitro selection for triplet polymerase activity
Mark 1 for reported polymerase ribozyme fitness (log ratio) of -4 or greater; mark -1 for anything smaller.

Task: Exam item: decide whether the reported polymerase ribozyme fitness (log ratio) for A50C C56A G77C C115A is at least -4.
Result: 1

Task: Follow-up item: U87G C123A
Result: 1

Task: Follow-up item: C53G U78C U81C U106A
Result: 1

Task: Follow-up item: G36A C49U C64U C86G U92C
Result: -1

Task: Follow-up item: A6U A84U G110U
Result: 1

Task: Follow-up item: C22G G42C C115U
Result: 1

Task: Follow-up item: C28A A50G C62U G65U G69U U112A
Result: 1

Task: Follow-up item: A16U A41C G57A A84U
Result: 1

Task: Follow-up item: C85G C114G
Result: 1

Task: Follow-up item: A2G A46C
Result: 1

Task: Follow-up item: G35U C53U C124G
Result: -1

Task: Follow-up item: C8A C12G C64A C123A
Result: -1
